Hey, just so you know, these numbers are from ChEMBL document CHEMBL3792314.

# test.name: Inhibition of glucose-induced insulin secretion from Wistar rat pancreatic islets assessed as residual insulin release at 50 uM after 90 mins by radioimmunological assay
# Type: functional, Pancreatic islet
measured.property: Activity (%)

> print(dat)
                                   compound  measured.property  unit.string  test.result
1     N#Cc1ccc(NC(=O)Nc2nc3ccc(Br)cc3s2)cc1           Activity            %        10.68
2   CC(C)NC(=O)Nc1nc2ccc([N+](=O)[O-])cc2s1           Activity            %         8.52
3         O=C(NCc1ccccc1)Nc1nc2ccc(Br)cc2s1           Activity            %        17.85
4          CC(C)(C)NC(=O)Nc1nc2ccc(Br)cc2s1           Activity            %        15.89
5  CC1=Nc2ccc(Cl)cc2S(=O)(=O)N1 [DIAZOXIDE]           Activity            %         26.7
6  CC(N/C(=N\C#N)Nc1ccncc1)C(C)(C)C (configuration not stated) [PINACIDIL ANHYDROUS]           Activity            %         88.8
7  CC(C)(C)NC(=O)Nc1nc2ccc([N+](=O)[O-])cc2s1           Activity            %        11.77
